Tested on: Candida albicans
Assay: Antifungal activity against Candida albicans AUMC 418 assessed as diameter of growth inhibition zone at 20 mg/ml at 28 degC after 7 days
Format: functional
Settings: AUMC 418, 168 h, read-out: DIZ
measured-metric: zone of inhibition at 20000 µg/mL (mm)

- molecule: "Cc1nn(-c2ccccc2)c2nc3c(nc12)/C(=N\\NC(N)=S)c1ccccc1-3"
  recorded-value: 0
- molecule: "Cc1nn(-c2ccccc2)c2nc3c(nc12)/C(=N/N=c1/[nH]c(-c2ccccc2)cs1)c1ccccc1-3"
  recorded-value: 0
- molecule: "Cc1nn(-c2ccccc2)c2nc3c(nc12)/C(=C/c1ccccc1Cl)c1ccccc1-3"
  recorded-value: 0
- molecule: "Cc1nn(-c2ccccc2)c2nc3c(nc12)/C(=N/N)c1ccccc1-3"
  recorded-value: 0
- molecule: "Cc1nn(-c2ccccc2)c2nc3c(nc12)/C(=N/N=C1/NC(=O)CS1)c1ccccc1-3"
  recorded-value: 0
- molecule: "Cc1nn(-c2ccccc2)c2nc3c(nc12)C(=O)c1ccccc1-3"
  recorded-value: 0
- molecule: "CCOC(=O)/C(C#N)=C1\\c2ccccc2-c2nc3c(nc21)c(C)nn3-c1ccccc1"
  recorded-value: 10
- molecule: "Clc1ccccc1C(c1ccccc1)(c1ccccc1)n1ccnc1"
  recorded-value: 24
- molecule: "Cc1nn(-c2ccccc2)c2nc3c(nc12)Cc1ccccc1-3"
  recorded-value: 0
- molecule: "Cc1nn(-c2ccccc2)c2nc3c(nc12)/C(=N\\O)c1ccccc1-3"
  recorded-value: 0
- molecule: "CCOC(=O)C1S/C(=N\\N=C2/c3ccccc3-c3nc4c(nc32)c(C)nn4-c2ccccc2)NC1=O (stereo unspecified)"
  recorded-value: 0
